Every entry's value here was drawn from patent US20250353873A1.

Test system: human APOE RNA
Experiment: Dose-dependent inhibition of human APOE RNA in HepG2 cells, electroporation, 50,000 cells per well, RT-PCR normalized to GAPDH (Example 4, Tables 8-10)
Assay type: cell-based
Conditions: 20,000 nM; HepG2, electroporation, 16-hour treatment
Strand notation (5' to 3'): a small letter for the sugar, then the base; units joined by * are phosphorothioate-linked, units joined directly phosphodiester-linked; [ ] holds rarer units or linkages, { } end groups; capitals alone tell only the bases. [ms] = mesyl phosphoramidate linkage; e = 2'-O-(2-methoxyethyl) (MOE); k = constrained ethyl (cEt); [5mC] = 5-methylcytosine; d = 2'-deoxy (DNA)
PARAMETER_MEASURED: APOE RNA (% UTC)
Numbers only, in % UTC.

[
  {
    "SUBSTANCE": "1766559 (eT*eTeGeGeT*dG[ms]dA[ms]dA[ms]dT*d[5mC]*dT*dT*dT[ms]dA[ms]dT*kTkAeA*eA*e[5mC]; antisense) [Compound 1766559]",
    "APOE RNA (% UTC)": 36
  },
  {
    "SUBSTANCE": "1757551: mixed MOE/cEt gapmer TTGGTGAATCTTTATTAA, sugar eeekkddddddddeeeee, linkages soossssssssssooss (eT*eTeGkG*kT*dG*dA*dA*dT*d[5mC]*dT*dT*dT*eAeTeT*eA*eA) [compound 1757551]",
    "APOE RNA (% UTC)": 9
  },
  {
    "SUBSTANCE": "1757574 (eA*e[5mC]eTeT*eG*eG*dT*dG[ms]dA[ms]dA[ms]dT*d[5mC]*dT*dT*dT*dA[ms]kT*kT*eA*eA; antisense) [Compound 1757574]",
    "APOE RNA (% UTC)": 20
  }
]

Go through the items and report each one's APOE RNA (% UTC).
1. 1757554: mixed MOE/cEt gapmer TTGGTGAATCTTTATTAA, sugar kkeeeddddddddeeeee, linkages soossssssssssooss (kT*kTeGeG*eT*dG*dA*dA*dT*d[5mC]*dT*dT*dT*eAeTeT*eA*eA) [compound 1757554]
2. 1757562: mixed MOE/cEt gapmer TTGGTGAATCTTTATTAA, sugar eeeekddddddddkkeee, linkages soossssssssssooss (eT*eTeGeG*kT*dG*dA*dA*dT*d[5mC]*dT*dT*dT*kAkTeT*eA*eA) [compound 1757562]
3. 1757570 (eA*e[5mC]eTeTkG*dG*dT*dG*dA*dA*dT*d[5mC]*dT*dT*dT*kAkTeT*eA*eA; antisense) [Compound 1757570]

### Response
1: 13; 2: 16; 3: 18

Go through the items and report each one's APOE RNA (% UTC).
1. 1757564: mixed MOE/cEt gapmer TTGGTGAATCTTTATTAA, sugar eeeekddddddddkeeke, linkages soossssssssssooss (eT*eTeGeG*kT*dG*dA*dA*dT*d[5mC]*dT*dT*dT*kAeTeT*kA*eA) [compound 1757564]
2. 1757572 (eA*e[5mC]eTeT*kG*kG*dT*dG[ms]dA[ms]dA[ms]dT*d[5mC]*dT*dT*dT*dA[ms]eT*eT*eA*eA; antisense) [Compound 1757572]
3. 1757557: mixed MOE/cEt gapmer TTGGTGAATCTTTATTAA, sugar eeeeeddddddddeekke, linkages soossssssssssooss (eT*eTeGeG*eT*dG*dA*dA*dT*d[5mC]*dT*dT*dT*eAeTkT*kA*eA) [compound 1757557]

### Response
33
10
7

====

Test system: human APOE RNA
Assay: Activity in APOE C57BL/6NTac-Apoeem7250 knock-in mice, single ICV bolus, 20 weeks (Example 13)
Type: in vivo
Details: cortex; single ICV bolus 300 μg; 20 weeks post treatment; normalized to mouse Ppia
Strand notation (5' to 3'): a small letter for the sugar, then the base; units joined by * are phosphorothioate-linked, units joined directly phosphodiester-linked; [ ] holds rarer units or linkages, { } end groups; capitals alone tell only the bases. [ms] = mesyl phosphoramidate linkage; e = 2'-O-(2-methoxyethyl) (MOE); k = constrained ethyl (cEt); [5mC] = 5-methylcytosine; d = 2'-deoxy (DNA)
So basically: APOE RNA (% control) Cortex at 80 % control or higher? That is MET. Lower than 80 % control? That is NOT MET.

[
  {
    "SUBSTANCE": "1757562: mixed MOE/cEt gapmer TTGGTGAATCTTTATTAA, sugar eeeekddddddddkkeee, linkages soossssssssssooss (eT*eTeGeG*kT*dG*dA*dA*dT*d[5mC]*dT*dT*dT*kAkTeT*eA*eA) [compound 1757562]",
    "TARGET_OR_TEST_SYSTEM": "human APOE RNA",
    "CLASS_ASSIGNMENT": "MET"
  },
  {
    "SUBSTANCE": "1778114: modified oligonucleotide complementary to human APOE RNA (eA*e[5mC]eTeTkG*kG*dT*dG[ms]dA[ms]dA*dT*d[5mC]*dT*dT*dT*dA[ms]eTeT*eA*eA; antisense) [compound 1778114]",
    "TARGET_OR_TEST_SYSTEM": "human APOE RNA",
    "CLASS_ASSIGNMENT": "NOT MET"
  },
  {
    "SUBSTANCE": "1778122 (eA*e[5mC]eTeTeG*eG*dT*dG[ms]dA[ms]dA*dT*d[5mC]*dT*dT*dT*dA[ms]kT*kT*eA*eA; antisense) [Compound 1778122]",
    "TARGET_OR_TEST_SYSTEM": "human APOE RNA",
    "CLASS_ASSIGNMENT": "NOT MET"
  },
  {
    "SUBSTANCE": "1785616 (k[5mC]*dT[ms]dT[ms]kG*dG[ms]kT*dG[ms]dA[ms]dA[ms]dT*d[5mC]*dT*dT*dT*dA*dT[ms]kT*kA*dA[ms]kA; antisense) [Compound 1785616]",
    "TARGET_OR_TEST_SYSTEM": "human APOE RNA",
    "CLASS_ASSIGNMENT": "NOT MET"
  }
]

Consider the record given below.
### Prompt Could you verify whether the entry 1736520: 6-10-4 MOE gapmer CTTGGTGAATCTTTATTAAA, linkages sossoszzzssssssssss (e[5mC]*eTeT*eG*eGeT*dG[ms]dA[ms]dA[ms]dT*d[5mC]*dT*dT*dT*dA*dT*eT*eA*eA*eA) [compound 1736520] shows APOE RNA (% control) Cortex of no less than 80 % control?
### Response NOT MET

====

Would you mind telling me the reported APOE RNA (% UTC) of each entry?
Test system: human APOE RNA
Assay: Dose-dependent inhibition of human APOE RNA in HepG2 cells, electroporation, 50,000 cells per well, RT-PCR normalized to GAPDH (Example 4, Tables 8-10)
Format: cell-based
Conditions: 8,000 nM; HepG2, electroporation, 16-hour treatment
Strand notation (5' to 3'): a small letter for the sugar, then the base; units joined by * are phosphorothioate-linked, units joined directly phosphodiester-linked; [ ] holds rarer units or linkages, { } end groups; capitals alone tell only the bases. [ms] = mesyl phosphoramidate linkage; e = 2'-O-(2-methoxyethyl) (MOE); k = constrained ethyl (cEt); [5mC] = 5-methylcytosine; d = 2'-deoxy (DNA)
One number for each entry, in % UTC.

Go through the items and report each one's APOE RNA (% UTC).
1. 1757563: mixed MOE/cEt gapmer TTGGTGAATCTTTATTAA, sugar eeeekddddddddkekee, linkages soossssssssssooss (eT*eTeGeG*kT*dG*dA*dA*dT*d[5mC]*dT*dT*dT*kAeTkT*eA*eA) [compound 1757563]
2. 1757561: mixed MOE/cEt gapmer TTGGTGAATCTTTATTAA, sugar eeekkddddddddkeeee, linkages soossssssssssooss (eT*eTeGkG*kT*dG*dA*dA*dT*d[5mC]*dT*dT*dT*kAeTeT*eA*eA) [compound 1757561]
3. 1757582 (eT*eTeGkGkT*dG*dA*dA*dT*d[5mC]*dT*dT*dT*dA*dT*eTeAeA*eA*e[5mC]; antisense) [Compound 1757582]
4. 1766537 (eT*eTeGeGeT*dG[ms]dA[ms]dA[ms]dT*d[5mC]*dT*dT*dT[ms]dA*dT*kTkAeA*eA*e[5mC]; antisense) [Compound 1766537]
5. 1757559: mixed MOE/cEt gapmer TTGGTGAATCTTTATTAA, sugar eeeekddddddddkeeee, linkages soossssssssssooss (eT*eTeGeG*kT*dG*dA*dA*dT*d[5mC]*dT*dT*dT*kAeTeT*eA*eA) [compound 1757559]

### Response
1: 17; 2: 35; 3: 37; 4: 21; 5: 39

====

System: human APOE RNA
Assay: Dose-dependent reduction of human APOE RNA in HepG2 cells, electroporation, 20,000 cells per well, normalized to PPIA (Example 4, Table 11)
Format: cell-based
Conditions: HepG2 cells, 20,000 cells per well, approximately 24 hours, PPIA-normalized, 205 nM
Strand notation (5' to 3'): a small letter for the sugar, then the base; units joined by * are phosphorothioate-linked, units joined directly phosphodiester-linked; [ ] holds rarer units or linkages, { } end groups; capitals alone tell only the bases. [ms] = mesyl phosphoramidate linkage; e = 2'-O-(2-methoxyethyl) (MOE); k = constrained ethyl (cEt); [5mC] = 5-methylcytosine; d = 2'-deoxy (DNA)
Would you mind telling me the reported APOE RNA (% UTC) 205 nM of each entry?
Numbers only, in % UTC.

Worked set:
[
  {
    "SUBSTANCE": "Aks^mCeoTeoTesGesGksTdsGdzAdzAdzTds^mCdsTdsTdsTdsAdzTksTksAesAe (kA*e[5mC]eTeT*eG*kG*dT*dG[ms]dA[ms]dA[ms]dT*d[5mC]*dT*dT*dT*dA[ms]kT*kT*eA*eA) [Compound No. 1809635]",
    "UNITS": "% UTC",
    "MEASURED": 55
  },
  {
    "SUBSTANCE": "Aes^mCeoTeoTesGesGksTdsGdzAdzAdzTds^mCdsTdsTdsTdsAdzTksTksAesAe (eA*e[5mC]eTeT*eG*kG*dT*dG[ms]dA[ms]dA[ms]dT*d[5mC]*dT*dT*dT*dA[ms]kT*kT*eA*eA) [Compound No. 1757576]",
    "UNITS": "% UTC",
    "MEASURED": 41
  },
  {
    "SUBSTANCE": "TezTeoGeoGksTdsGdzAdzAdzTds^mCdsTdsTdsTdsAdzTksTksAesAesAes^mCe (antisense eT[ms]eTeGkG*dT*dG[ms]dA[ms]dA[ms]dT*d[5mC]*dT*dT*dT*dA[ms]kT*kT*eA*eA*eA*e[5mC]) [Compound No. 1809814]",
    "UNITS": "% UTC",
    "MEASURED": 71
  }
]

### Prompt Specify reported APOE RNA (% UTC) 205 nM for the substance shown: ^mCksTksTksGdzGdzTdzGdzAdzAdzTds^mCdsTdsTdsTdsAdsTdsTksAksAdzAk (antisense k[5mC]*kT*kT*dG[ms]dG[ms]dT[ms]dG[ms]dA[ms]dA[ms]dT*d[5mC]*dT*dT*dT*dA*dT*kT*kA*dA[ms]kA) [Compound No. 1785602]
### Response 44
